Target: ITK (Homo sapiens)
Sequence (Q08881 1-620): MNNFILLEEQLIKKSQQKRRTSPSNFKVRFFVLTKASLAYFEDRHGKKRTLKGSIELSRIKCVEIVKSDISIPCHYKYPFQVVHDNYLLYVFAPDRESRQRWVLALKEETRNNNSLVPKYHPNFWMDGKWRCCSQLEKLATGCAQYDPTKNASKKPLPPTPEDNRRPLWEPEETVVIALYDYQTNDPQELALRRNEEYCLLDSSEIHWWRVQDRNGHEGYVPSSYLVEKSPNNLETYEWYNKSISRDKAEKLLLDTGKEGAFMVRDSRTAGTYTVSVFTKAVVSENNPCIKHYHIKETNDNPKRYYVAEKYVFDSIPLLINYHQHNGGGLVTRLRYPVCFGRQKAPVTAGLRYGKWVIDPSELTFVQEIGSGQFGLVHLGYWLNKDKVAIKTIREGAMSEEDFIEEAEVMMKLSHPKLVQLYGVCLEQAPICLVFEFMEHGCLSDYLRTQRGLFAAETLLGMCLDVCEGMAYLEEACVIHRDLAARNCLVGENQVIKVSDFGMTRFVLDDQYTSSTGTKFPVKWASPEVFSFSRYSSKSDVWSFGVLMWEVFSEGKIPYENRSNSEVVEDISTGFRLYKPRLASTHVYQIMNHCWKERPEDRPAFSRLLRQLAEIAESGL
Assay: Inhibition of a panel of kinases, in vitro HotSpot kinase assay: ITK
Type: biochemical
Conditions: D-compounds panel data; 1 μM ATP
pIC50: −log10 of the molar value.
Quick reference: pIC50 of the listed items.

Simply: C[C@@H]1[C@H](NC(=O)c2ccc(C3CC3)cc2F)CCCN1c1cnc(C(N)=O)c(Nc2cc(CN(C)C)ns2)n1 , ITK (Homo sapiens), pIC50 = 6.00 to 7.00

Log: ITK (Homo sapiens), compound C[C@@H]1[C@H](NC(=O)c2ccc(C3CC3)cc2)CCCN1c1cnc(C(N)=O)c(Nc2cnn(-c3ccncc3)c2)n1 , pIC50 = 6.00 to 7.00

Field pIC50 (system: ITK (Homo sapiens)) for entry C[C@@H]1[C@H](NC(=O)c2ccc(C3CC3)cc2)CCCN1c1cnc(C(N)=O)c(Nc2ccc(OC3C[C@H]4CC[C@@H](C3)N4C)cc2)n1 (stereo partly drawn) [Example D-106] = 7.00 to 8.00

For Cn1cc(Nc2nc(N3CCC[C@@H](NC(=O)c4ccc(C5CC5)cc4)C3)cnc2C(N)=O)cn1 on ITK (Homo sapiens), measured pIC50 was 5.00 to 6.00

* * *

Target: TEC (Homo sapiens)
Sequence (P42680 whole entry): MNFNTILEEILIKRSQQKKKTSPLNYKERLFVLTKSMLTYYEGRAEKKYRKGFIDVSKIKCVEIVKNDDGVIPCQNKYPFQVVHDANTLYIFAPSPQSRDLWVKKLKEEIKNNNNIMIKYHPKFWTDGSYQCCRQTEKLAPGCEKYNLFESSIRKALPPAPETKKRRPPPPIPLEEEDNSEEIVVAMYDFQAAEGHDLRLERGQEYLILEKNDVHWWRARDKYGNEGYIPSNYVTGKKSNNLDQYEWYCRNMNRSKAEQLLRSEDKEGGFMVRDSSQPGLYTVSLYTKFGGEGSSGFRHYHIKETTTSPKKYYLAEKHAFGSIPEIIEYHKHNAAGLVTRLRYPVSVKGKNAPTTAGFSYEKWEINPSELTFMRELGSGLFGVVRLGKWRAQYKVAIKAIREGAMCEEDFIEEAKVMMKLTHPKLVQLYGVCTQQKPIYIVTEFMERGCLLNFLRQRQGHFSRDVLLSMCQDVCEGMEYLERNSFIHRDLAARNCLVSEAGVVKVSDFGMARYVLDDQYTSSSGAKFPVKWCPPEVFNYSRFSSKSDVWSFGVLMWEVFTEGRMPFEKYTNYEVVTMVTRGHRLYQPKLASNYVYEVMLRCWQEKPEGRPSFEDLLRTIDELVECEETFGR
Assay: Inhibition of a panel of kinases, in vitro HotSpot kinase assay: TEC
Type: biochemical
Conditions: Table 13, A compounds; 1 μM ATP
RECORDED_METRIC: IC50

Observe how each entry below is paired with its result.
[
  {
    "COMPOUND_SMILES": "C[C@@H]1[C@H](NC(=O)c2ccc(C3CC3)cc2F)CCCN1c1cnc(C(N)=O)c(Nc2ccc(C3(C)CCN(C4CC4)CC3)cc2)n1",
    "MEASURED_ON": "TEC (Homo sapiens)",
    "IC50": "10 to 100 nM"
  },
  {
    "COMPOUND_SMILES": "Cn1cc(Nc2nc(N3CCC[C@@H](n4ccc5cc(C6CC6)ccc5c4=O)C3)cnc2C(N)=O)cn1",
    "MEASURED_ON": "TEC (Homo sapiens)",
    "IC50": "10 to 100 nM"
  },
  {
    "COMPOUND_SMILES": "CN1CCN(c2ccc(Nc3nc(N4CCC[C@@H](n5ccc6cc(C7CC7)cc(F)c6c5=O)C4)cnc3C(N)=O)cc2)CC1",
    "MEASURED_ON": "TEC (Homo sapiens)",
    "IC50": "10 to 100 nM"
  },
  {
    "COMPOUND_SMILES": "C[C@@H]1[C@H](NC(=O)c2ccc(C3CC3)cc2)CCCN1c1cnc(C(N)=O)c(Nc2cnn(C)c2)n1",
    "MEASURED_ON": "TEC (Homo sapiens)",
    "IC50": "10 to 100 nM"
  },
  {
    "COMPOUND_SMILES": "COCCN(C)Cc1cc(Nc2nc(N3CCC[C@@H](NC(=O)c4ccc(C5CC5)cc4)[C@H]3C)cnc2C(N)=O)sn1",
    "MEASURED_ON": "TEC (Homo sapiens)",
    "IC50": "100 to 1000 nM"
  }
]

The reported value for CC(C)N1CCN(c2ccc(Nc3nc(N4CCC[C@@H](NC(=O)c5ccc(C6CC6)cc5F)[C@H]4C)cnc3C(N)=O)cc2)CC1 in terms of IC50 is 10 to 100 nM

// recorded IC50 for C[C@@H]1[C@H](NC(=O)c2ccc(C3CC3)cc2F)CCCN1c1cnc(C(N)=O)c(Nc2ccc(S(=O)(=O)N3CCN(C)CC3)cc2)n1 : 100 to 1000 nM
